Target: recombinant human secreted phospholipase A2 (Homo sapiens, UniProt P14555)
Sequence (P14555 21-144): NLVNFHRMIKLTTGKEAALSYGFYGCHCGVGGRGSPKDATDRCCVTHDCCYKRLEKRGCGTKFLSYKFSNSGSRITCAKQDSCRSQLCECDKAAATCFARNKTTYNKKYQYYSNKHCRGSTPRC
Experiment: sPLA2 Chromogenic Assay (Assay 1)
Format: biochemical
Settings: diheptanoyl thio-PC substrate, pH 7.5, 40° C. for 30 minutes, absorbance at 405 nanometers
Please use 1.0 for IC50 under 100 nM and 0.0 for everything else, ties included.

- CCc1c(C(=O)C(N)=O)c2c(OCc3nnnn3C(c3ccccc3)(c3ccccc3)c3ccccc3)cccn2c1Cc1ccccc1-c1ccccc1 [Compound 59l]: 0.0
- CCc1c(C(=O)C(N)=O)c2c(OCC(=O)OC(C)OC(=O)OC(C)C)cccn2c1Cc1ccccc1-c1ccccc1 (stereo not shown) [Compound 59c]: 1.0
- CCc1c(C(=O)C(N)=O)c2c(OCC(=O)O)cccn2c1CC=Cc1ccccc1 [Compound 58h]: 1.0
- CCc1c(C(=O)C(N)=O)c2c(OCC(=O)OC)cccn2c1Cc1cccc(-c2ccccc2)c1 [Compound 57g]: 1.0
- Cc1c(C(=O)C(N)=O)c2c(OCc3ccccc3)cccn2c1Cc1ccccc1 [Compound 35g]: 1.0
- Cc1c(C(=O)C(N)=O)c2c(OCc3ccncc3)cccn2c1Cc1ccccc1-c1ccccc1 [Compound 59o]: 0.0
- CCc1c(C(=O)C(N)=O)c2c(OCC(=O)O)cccn2c1Cc1cccc(OC)c1 [Compound 52m]: 1.0
- NC(=O)C(=O)c1c(C2CC2)c(CC2CCCC2)n2cccc(OCC(=O)O)c12 [Compound 52v]: 1.0
- Cc1c(C(=O)C(N)=O)c2c(OCC(=O)O)cccn2c1CC1CCCC1 [Compound 52w]: 1.0
- CCc1c(C(=O)C(N)=O)c2c(OCC(=O)O)cccn2c1Cc1ccccc1Cc1ccccc1 [Compound 52j]: 1.0
- CCc1c(C(=O)C(N)=O)c2cc(OCCCC(=O)O)ccn2c1Cc1ccccc1 [Compound 67a]: 0.0
- Cc1c(C(=O)C(N)=O)c2c(OCC(=O)O)cccn2c1Cc1ccccc1 [Compound 40g]: 1.0
- CCc1c(C(=O)C(N)=O)c2c(OCCC(=O)O)cccn2c1Cc1ccccc1-c1ccccc1 [Compound 70a]: 1.0
- CCc1c(C(=O)C(N)=O)c2c(OCCC(=O)OC)cccn2c1Cc1ccccc1-c1ccccc1 [Compound 70c]: 0.0
- CCc1c(C(=O)C(N)=O)c2c(OCC(=O)OC)cccn2c1CC1CCCCC1 [Compound 51b]: 0.0

###

Property: IC50; scope: individual compounds
target: recombinant human secreted phospholipase A2 (Homo sapiens); test: sPLA2 Chromogenic Assay (Assay 1); conditions: diheptanoyl thio-PC substrate, pH 7.5, 40° C. for 30 minutes, absorbance at 405 nanometers
EXPERIMENTAL_ENDPOINT: IC50 (nM)

* CCCC(CCC)Cc1c(CC)c(C(=O)C(N)=O)c2c(OCC(=O)OC)cccn12 [Compound 51f] | 590
* CCc1c(C(=O)C(N)=O)c2cc(OCCCC(=O)O)ccn2c1Cc1ccccc1-c1ccccc1 [Compound 67c] | 140
* COC(=O)COc1cccn2c(Cc3cccc4ccccc34)c(C3CC3)c(C(=O)C(N)=O)c12 [Compound 57j] | 790
* Cc1c(C(=O)C(N)=O)c2c(OCc3ccccn3)cccn2c1Cc1ccccc1-c1ccccc1 [Compound 59n] | 600
* CCCCCc1c(CC)c(C(=O)C(N)=O)c2c(OCC(=O)O)cccn12 [Compound 52e] | 62
* CCc1c(C(=O)C(N)=O)c2c(OCC(=O)O)cccn2c1Cc1ccccc1 [Compound 40a] | 8
* CC(C)c1c(C(=O)C(N)=O)c2c(OCC(=O)O)cccn2c1Cc1ccccc1-c1ccccc1 [Compound 58c] | 35
* CCCC(CCC)Cc1c(CC)c(C(=O)C(N)=O)c2c(OCC(=O)O)cccn12 [Compound 52f] | 17
* CCc1c(C(=O)C(N)=O)c2c(OCC(=O)O)cccn2c1CC1CCCCCC1 [Compound 52d] | 23
* CCCCc1ccc(Cc2c(CC)c(C(=O)C(N)=O)c3c(OCC(=O)O)cccn23)cc1 [Compound 52s] | 11
* CCc1c(C(=O)C(N)=O)c2c(OCC(=O)O)cccn2c1CCCc1ccccc1 [Compound 58i] | 51
* CCc1c(CC(N)=O)c2c(OCC(=O)OCc3ccccc3)cccn2c1Cc1cccc(Cl)c1 [Compound 21y] | 350
* CCCCCC1CCC(Cc2c(CC)c(C(=O)C(N)=O)c3c(OCC(=O)O)cccn23)CC1 (centres unmarked) [Compound 52o] | 25
* CCc1c(C(=O)C(N)=O)c2cc(OCCC(=O)O)ccn2c1Cc1ccccc1-c1ccccc1 [Compound 70b] | 240
* CCc1c(C(=O)C(N)=O)c2c(OCC(=O)OC(C)(C)C)cccn2c1Cc1ccccc1 [Compound 38a] | 52
* CCc1c(C(=O)C(N)=O)c2c(OCC(=O)OC)cccn2c1Cc1ccc2ccccc2c1 [Compound 51g] | 170

###

Each entry below carries its recorded melting point.
EXPERIMENTAL_ENDPOINT: melting point

* CCc1c(C(=O)C(N)=O)c2c(OCc3ccccc3)cccn2c1Cc1cccs1 [Compound 49k] | 191 to 192 °C
* CCc1c(C(=O)C(N)=O)c2c(OCC(=O)OC)cccn2c1Cc1ccc2ccccc2c1 [Compound 51g] | 195 to 196 °C
* CCc1c(C(=O)C(N)=O)c2c(OCC(=O)OC)cccn2c1Cc1ccccc1[N+](=O)[O-] [Compound 51n] | 156 to 157 °C
* CCc1c(C(=O)C(N)=O)c2c(OCC(=O)OC)cccn2c1Cc1cccc(C(F)(F)F)c1 [Compound 39i] | 136 to 137 °C
* CCc1c(C(=O)C(N)=O)c2c(OCC(=O)OC)cccn2c1CC1CCCCCC1 [Compound 51d] | 147 to 148 °C
* CCc1c(C(=O)C(N)=O)c2c(OCC(=O)OCCN3CCOCC3)cccn2c1Cc1ccccc1-c1ccccc1 [Compound 59i] | 113 to 120 °C (dec.)
* CC(C)(C)c1c(C(=O)C(N)=O)c2c(OCC(=O)O)cccn2c1Cc1ccccc1-c1ccccc1 [Compound 58e] | 221 to 222 °C
* NC(=O)C(=O)c1c(C2CC2)c(CC2CCCCC2)n2cccc(OCC(=O)O)c12 [Compound 58k] | 229 to 234 °C

###

EXPERIMENTAL_ENDPOINT: melting point

- NC(=O)C(=O)c1c(C2CCCC2)c(Cc2ccccc2-c2ccccc2)n2cccc(OCC(=O)O)c12 [Compound 58f]: 147 to 148 °C
- COC(=O)COc1cccn2c(CC34CC5CC(CC(C5)C3)C4)c(C)c(C(=O)C(N)=O)c12 [Compound 51p]: 191 to 192 °C
- CCc1c(C(=O)C(N)=O)c2c(OCC(=O)OCC(C)=O)cccn2c1Cc1ccccc1-c1ccccc1 [Compound 59k]: 159 to 162 °C
- CCOC(=O)COc1ccn2c(Cc3ccccc3-c3ccccc3)c(CC)c(C(=O)C(N)=O)c2c1 [Compound 68b]: 119 to 121 °C
- CCc1c(CC(N)=O)c2c(OCC(=O)O)cccn2c1-c1cccc2ccccc12 [Compound 22w]: 129 to 133 °C
- COC(=O)COc1cccn2c(Cc3ccccc3-c3ccccc3)c(C3CC3)c(C(=O)C(N)=O)c12 [Compound 39k]: 178 to 179 °C
- CCOC(=O)COc1cccn2c(Cc3ccccc3)c(CC)c(C(=O)C(N)=O)c12 [Compound 37a]: 191 to 192 °C
- CCCC(CCC)Cc1c(CC)c(C(=O)C(N)=O)c2c(OCC(=O)OC)cccn12 [Compound 51f]: 114 to 115 °C

###

biological target: recombinant human secreted phospholipase A2 (Homo sapiens); assay: sPLA2 Chromogenic Assay (Assay 1); details: diheptanoyl thio-PC substrate, pH 7.5, 40° C. for 30 minutes, absorbance at 405 nanometers
List of IC50 values.
EXPERIMENTAL_ENDPOINT: IC50 (nM)

* CCc1c(C(=O)C(N)=O)c2c(OCc3ccccc3)cccn2c1Cc1ccccc1 [Compound 35a] | 400
* CCc1c(C(=O)C(N)=O)c2c(OCC(=O)O)cccn2c1CCc1ccccc1 [Compound 52i] | 51
* CCOC(=O)COc1cccn2c(Cc3ccccc3-c3ccccc3)c(CC)c(C(=O)C(N)=O)c12 [Compound 37d] | 13
* CCc1c(CC(N)=O)c2c(OCC(=O)O)cccn2c1Cc1ccccc1-c1ccccc1 [Compound 22x] | 14
* CCc1c(C(=O)C(N)=O)c2c(OCC(=O)OC(C)C(=O)OC3CCCCC3)cccn2c1Cc1ccccc1-c1ccccc1 (centres unmarked) [Compound 59e] | 55

###

EXPERIMENTAL_ENDPOINT: melting point

- Cc1c(C(=O)C(N)=O)c2c(OCc3ccncc3)cccn2c1Cc1ccccc1-c1ccccc1 [Compound 59o]: 195 to 197 °C
- COC(=O)CNc1cccn2c(CC3CCCCC3)c(C)c(C(=O)C(N)=O)c12 [Compound 89b]: 173 to 177 °C
- CCc1c(C(=O)C(N)=O)c2c(OCC(=O)OC)cccn2c1CC1CCCCC1 [Compound 51b]: 149 to 150 °C
- CCc1c(CC(N)=O)c2cc(OCCCC(=O)O)ccn2c1Cc1ccccc1-c1ccccc1 [Compound 71b]: 105 to 120 °C (dec.)

The values you see were collected from patent US6645976B1.
